Experimental Target: rat TRPV1 (Rattus norvegicus (Rat), UniProt O35433)
Sequence (O35433 whole entry): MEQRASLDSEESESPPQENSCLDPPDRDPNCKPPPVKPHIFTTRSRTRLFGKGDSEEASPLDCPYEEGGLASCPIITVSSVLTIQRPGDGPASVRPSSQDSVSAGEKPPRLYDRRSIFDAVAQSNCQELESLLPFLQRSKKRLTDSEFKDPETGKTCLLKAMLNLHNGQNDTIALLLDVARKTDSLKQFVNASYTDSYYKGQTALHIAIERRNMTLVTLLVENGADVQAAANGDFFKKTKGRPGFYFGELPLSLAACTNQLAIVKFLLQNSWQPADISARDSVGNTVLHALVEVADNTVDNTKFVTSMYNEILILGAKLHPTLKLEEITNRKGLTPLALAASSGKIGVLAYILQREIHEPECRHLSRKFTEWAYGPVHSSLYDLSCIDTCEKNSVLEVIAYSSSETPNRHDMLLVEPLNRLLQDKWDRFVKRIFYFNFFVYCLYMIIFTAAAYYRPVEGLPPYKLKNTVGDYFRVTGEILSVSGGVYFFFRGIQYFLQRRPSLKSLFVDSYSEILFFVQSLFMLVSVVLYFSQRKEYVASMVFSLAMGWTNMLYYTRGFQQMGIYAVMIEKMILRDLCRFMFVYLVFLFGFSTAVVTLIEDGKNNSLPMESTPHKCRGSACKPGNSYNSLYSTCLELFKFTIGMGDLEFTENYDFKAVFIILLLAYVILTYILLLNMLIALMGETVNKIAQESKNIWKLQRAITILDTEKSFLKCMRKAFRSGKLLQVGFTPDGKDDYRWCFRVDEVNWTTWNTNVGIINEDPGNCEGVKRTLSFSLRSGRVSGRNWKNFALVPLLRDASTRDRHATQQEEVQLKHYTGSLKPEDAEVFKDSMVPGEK
Measurement Setup: read-out: Rat IC50
Counter-ions that a name gives are not always drawn.
Measurement Name: log10 IC50 (log10 of the value in µM)

Molecule | Reported
CC(C)c1nc2c(c(Nc3cccc(C(F)(F)F)c3)n1)CCN(c1ncccc1C(F)(F)F)CC2 | -0.03
CN(C)S(=O)(=O)c1ccc(Nc2nc(N3CCOCC3)nc3c2CCN(c2ncccc2C(F)(F)F)CC3)cc1 | -1.15
OC[C@@H]1CCCN1c1nc2c(c(Nc3ccc(C(F)(F)F)cc3)n1)CCN(c1ncccc1C(F)(F)F)CC2 [Example 260, hydrochloride salt] | -1.30
FC(F)(F)c1ccc(Nc2nc(OC3CCCCC3)nc3c2CCN(c2ncccc2C(F)(F)F)CC3)cc1 | -0.40
CN(C)CCN(C)c1nc2c(c(Nc3ccc(C(C)(C)C)cc3)n1)CCN(c1ncccc1C(F)(F)F)CC2 | -1.00
COC(=O)C(C)(C)c1ccc(Nc2nc(N3CCCCC3)nc3c2CCN(c2ncccc2C(F)(F)F)CC3)cc1 | -1.10
CN(C)c1nc2c(c(Nc3ccc(Cl)c(Cl)c3)n1)CCN(c1ncccc1C(F)(F)F)CC2 [Example 63B, trifluoroacetic acid salt] | 0.40
